# protocol description: in vitro
# test parameters: human, liver microsomes
readout name: remaining at 5 min, 1 µM (%)
Numbers only, in %.

Form field: reported remaining at 5 min, 1 µM of O=C(CCc1csc(/C=C/c2ccc(F)cc2)n1)NO
105

----------
# protocol description: in vitro
# test parameters: CD-1, mouse, liver microsomes
readout name: remaining at 0 h, 1 µM
The number alone won't do; follow it with the unit.

Entry under review: O=C(CCc1csc(/C=C/c2ccc(F)cc2)n1)NO . Reported remaining at 0 h, 1 µM?
100%
